// provenance: a protein production outcome set (Wang et al. 2014)

assay: label from the status in PepcDB records

Residue sequence: MLYLFPLLAVVIWAGNAIVNKLSFGIIAPEAIAFYRWFFAMLILTPFMLKSVWKNRRRIIPLLPKLATLASLGMVLNQSLAYFAAATTTATNMALINSLVPMISLFLAVPLLKQRLSPLVLGGSVISLLGLVFMLSHGDIANLAIGVTEGDLLLLISAFVYALYGVLLKRWQLPISTWESVYIQGIIAVLMLTPLLFSAPSIAISSQATPLIVYAAFGASLIAPWAWINGINKLGAERTSIFFNLMPILAAIFAAIILNETLAIYHYLGGTMVILGVMLVQIKPKPKTTTIITCAE
protein production: failed
//
Residue sequence: MNVKRIKKRMFITFSIIAVLAIALYIFLQTAPFGNPPADARLERIRKSANYKDGVFKNLSNTPVMAEDASYMDMIKQQFSKDSTREPAVCIPSVKRDLSLVPSDRPVITWFGHSTYLIQTEGKNILIDPVFCTSTSPVQFVGNKKYKGTEVYTPADFPAINYLILTHDHYDHLDYQTTLDMQSKVFSYYMPLGVGSHLESWGIDTAKLHELDWWQEIDLEPGYKLVCLPARHFSGRSITDRGKTLWASYLLITPTHKIYIGGDSGYDTHFKQIADKYGAVDIAFLESGQYNAYWPYIHMMPEQTVQAAKDLQAKVLLPVHWGKYTLALHPWDEPIKRLTLEAHKQQVNVATPMIGEPVILDSILPHSTWWVPEGKK
protein production: failed
